Here the recorded mass density is given for each entry.
Test: xn = mol fraction of the nth substance listed
Conditions: 288.15 K; 101 kPa; Liquid; x1 = 0.85
The reply should be a number in kg/m3, with the unit left off.

Some entries whose results are on file:
compound	observation.type	measurement.units	value
CCCCCCCC(=O)OCC [ethyl octanoate] + CCO	mass density	kg/m3	866.72
CCOC(=O)Cc1ccccc1 [ethyl phenylacetate] + CCO	mass density	kg/m3	1021.84
CCOC(=O)c1ccccc1 [ethyl benzoate] + CCO	mass density	kg/m3	1033.99
CCCC(=O)OCCC(C)C [3-methylbutyl butanoate] + CCO	mass density	kg/m3	863.35

Return mass density (reported value) for this compound: CCCCCC(=O)OCC [ethyl hexanoate] + CCO
870.41
